// data source = PubChem BioAssay (NCI)

Tested on: SK-MEL-28 melanoma
Assay: NCI tumour cell line growth inhibition, 48 h; in the data active means GI50 below about 0.43 µM; inactive means the rest
Labels: t = active, f = inactive

compound | class
CCOC(=O)c1c2c(n3ccc(NC(=O)CCN4CCCC4)cc13)C(=O)c1ncccc1C2=O | f
CCOC(=O)c1ccc(NC(=O)N2CC(C)OC(C)C2)cc1 (stereo not given) | f
CS(=O)(=O)CCNCc1nc(-c2ccc3ncnc(Nc4ccc(F)c(Cl)c4)c3c2)cs1 | f
O=C(NNc1nc(Cl)nc(N2CCN(C(c3ccccc3)c3ccccc3)CC2)n1)c1ccccc1 | f
COc1ccc2c(c1)[nH]c(=O)c1c3cc(C)c(C)cc3cn21 | t
Cc1cc(-c2ncc(CC(=O)Nc3ccc(-c4cnccn4)cn3)cc2C)ccn1 | f
COc1ccc2cc(C(=O)/C=C/c3cc(OC)c(OC)c(OC)c3)ccc2c1 | f
CC(=O)O[C@H]1CC[C@@]2(C)C(=CC[C@@H]3[C@@H]2CC[C@]2(C)C(c4cccnc4)=CC[C@@H]32)C1 | f
N=C1C(c2nc(-c3ccc(Br)cc3)cs2)=C(O)CN1Cc1cccnc1 | f
C=C1C(=O)O[C@H]2[C@H]1CC/C(COC(=O)c1cc3cc(F)ccc3[nH]1)=C\CC[C@@]1(C)O[C@@H]21 | f
